Entry source: patent US10512626B2

System: 786-O-Hif-Luc cells (luciferase gene driven by multiple HIF responsive elements)
Experiment: Luciferase Assay (HIF reporter)
Conditions: 24 h, read-out: Mean Luciferase EC50 (nM)
Reported property: EC50

Q: I would be grateful if you could share the reported EC50 for CNS(=O)(=O)c1ccc(Oc2cc(F)cc(F)c2)c2c1[C@H](O)C(F)(F)C2 [Compound 251] .
A: 50 to 249 nM

Q: I would be grateful if you could share the reported EC50 for CS(=O)(=O)c1ccc(Oc2cc(F)cc(C#N)c2)c2c1[C@H](O)[C@H](F)C2 [Compound 231] .
A: < 50 nM

###

We begin with a simple list: items and their reported EC50.
System: 786-O-Hif-Luc cells (luciferase gene driven by multiple HIF responsive elements)
Assay: Luciferase Assay (HIF reporter)
Details: 24 h, read-out: Mean Luciferase EC50 (nM)

Solved entries (count: 8):
| Compound | Reported property | Val |
| --- | --- | --- |
| N#Cc1cc(Cl)cc(Oc2ccc(S(=O)(=O)CF)c3c2CC(F)(F)[C@H]3O)c1 | EC50 | < 50 nM |
| CS(=O)(=O)c1ccc(Oc2cc(F)cc(C#N)c2)c2c1C(O)C(F)C2 (centres unmarked) | EC50 | < 50 nM |
| CS(=O)(=O)c1ccc(Oc2cc(F)cc(C#N)c2)c2c1[C@H](N)C(F)(F)C2 | EC50 | 50 to 249 nM |
| N#Cc1cc(F)cc(Oc2ccc(S(N)(=O)=O)c3c2[C@H](F)C(F)(F)[C@H]3O)c1 | EC50 | 250 to 1000 nM |
| CS(=O)(=O)c1ccc(Oc2cc(F)cc(C#N)c2)c2c1C(O)C(F)(F)C2 (centres unmarked) | EC50 | 50 to 249 nM |
| N#Cc1cc(F)cc(Oc2ccc(S(=O)(=O)C(F)(F)F)c3c2CC(F)(F)[C@H]3N)c1 | EC50 | 50 to 249 nM |
| [2H][C@]1(O)c2c(S(C)(=O)=O)ccc(Oc3cc(F)cc(C#N)c3)c2CC1(F)F | EC50 | < 50 nM |
| CCS(=O)(=O)c1ccc(Oc2cc(F)cc(C#N)c2)c2c1[C@H](O)C(F)(F)C2 | EC50 | 50 to 249 nM |

Q: Identify the measured EC50 of CS(=O)(=O)c1ccc(Oc2cc(F)cc(C#N)c2)c2c1[C@H](O)[C@@H](F)C2 for 786-O-Hif-Luc cells (luciferase gene driven by multiple HIF responsive elements).
A: 250 to 1000 nM

Q: Identify the measured EC50 of O=S(=O)(c1ccc(Oc2cc(F)cc(Cl)c2)c(Cl)c1CO)C(F)F for 786-O-Hif-Luc cells (luciferase gene driven by multiple HIF responsive elements).
A: 250 to 1000 nM

Q: Identify the measured EC50 of N#Cc1cc(F)cc(Oc2ccc(S(=O)(=O)C(F)(F)F)c3c2CC[C@H]3O)c1 for 786-O-Hif-Luc cells (luciferase gene driven by multiple HIF responsive elements).
A: 50 to 249 nM

Q: Identify the measured EC50 of N#Cc1cc(F)cc(Oc2ccc(S(N)(=O)=O)c3c2CC(F)(F)[C@H]3O)c1 for 786-O-Hif-Luc cells (luciferase gene driven by multiple HIF responsive elements).
A: 50 to 249 nM

Q: Identify the measured EC50 of [2H]C([2H])([2H])S(=O)(=O)c1ccc(Oc2cc(F)cc(C#N)c2)c2c1[C@]([2H])(O)C(F)(F)C2 for 786-O-Hif-Luc cells (luciferase gene driven by multiple HIF responsive elements).
A: < 50 nM

Q: Identify the measured EC50 of N#Cc1cncc(Oc2ccc(S(=O)(=O)C(F)(F)F)c3c2CC(F)(F)[C@H]3O)c1 for 786-O-Hif-Luc cells (luciferase gene driven by multiple HIF responsive elements).
A: < 50 nM

Q: Identify the measured EC50 of N#Cc1cc(F)cc(Oc2ccc(S(=O)(=O)C(F)F)c3c2CC[C@H]3O)c1 for 786-O-Hif-Luc cells (luciferase gene driven by multiple HIF responsive elements).
A: 50 to 249 nM

Q: Identify the measured EC50 of CNS(=O)(=O)c1ccc(Oc2cc(F)cc(C#N)c2)c2c1[C@H](O)C(F)(F)C2 for 786-O-Hif-Luc cells (luciferase gene driven by multiple HIF responsive elements).
A: 50 to 249 nM

Q: Identify the measured EC50 of N#Cc1cc(F)cc(Oc2ccc(S(N)(=O)=O)c3c2[C@@H](F)C(F)(F)[C@H]3O)c1 for 786-O-Hif-Luc cells (luciferase gene driven by multiple HIF responsive elements).
A: < 50 nM

###

Tested on: 786-O-Hif-Luc cells (luciferase gene driven by multiple HIF responsive elements)
Assay: Luciferase Assay (HIF reporter)
Conditions: 24 h, read-out: Mean Luciferase EC50 (nM)
Reported property: EC50

| Compound | Val |
| --- | --- |
| CS(=O)(=O)c1ccc(Oc2cc(F)cc(C#N)c2)c2c1[C@@H](O)C(F)(F)C2 [Compound 226] | > 1000 nM |

Turning now to a further compound:
Q: I would be grateful if you could share the reported EC50 for CS(=O)(=O)c1ccc(Oc2cc(F)cc(C#N)c2)c2c1[C@H](O)C(F)(F)C2 [Compound 163] .
A: < 50 nM

###

Tested on: 786-O-Hif-Luc cells (luciferase gene driven by multiple HIF responsive elements)
Assay: Luciferase Assay (HIF reporter)
Conditions: 24 h, read-out: Mean Luciferase EC50 (nM)
We begin with a simple list: items and their reported EC50.

Solved entries (count: 3):
| Compound | Reported property | Val |
| --- | --- | --- |
| NS(=O)(=O)c1ccc(Oc2cc(F)cc(F)c2)c2c1[C@H](O)C(F)(F)C2 [Compound 256] | EC50 | < 50 nM |
| C[C@H]1C[C@@H](O)c2c(S(=O)(=O)C(F)F)ccc(Oc3cc(F)cc(Cl)c3)c21 [Compound 7a] | EC50 | 250 to 1000 nM |
| N#Cc1cccc(Oc2ccc(S(=O)(=O)C(F)F)c3c2CC[C@H]3O)c1 [Compound 156] | EC50 | 250 to 1000 nM |

Turning now to a further compound:
Q: I would be grateful if you could share the reported EC50 for CS(=O)(=O)c1ccc(Oc2cc(Cl)cc(C#N)c2)c2c1[C@H](O)C(F)(F)C2 [Compound 234] .
A: < 50 nM
